A collection of molecules and their measured pIC50
# assay_name: cells
# test_conditions: Homo sapiens, MCF-10A
Field pIC50 (float): negative decimal logarithm of the concentration in molar.

compound_string: CC(C)N(CCCNC(=O)Nc1ccc(C(C)(C)C)cc1)C[C@H]1O[C@@H](n2cc(Br)c3c(N)ncnc32)[C@H](O)[C@@H]1O
pIC50: 8.06

I would be grateful if you could share the reported pIC50 for CC(C)N(CCCNC(=O)Nc1ccc(C(C)(C)C)cc1)C[C@H]1O[C@@H](n2ccc3c(N)ncnc32)[C@H](O)[C@@H]1O .
7.08

###

# assay_target: UniProt Q12809
# Sequence (Q12809 whole entry): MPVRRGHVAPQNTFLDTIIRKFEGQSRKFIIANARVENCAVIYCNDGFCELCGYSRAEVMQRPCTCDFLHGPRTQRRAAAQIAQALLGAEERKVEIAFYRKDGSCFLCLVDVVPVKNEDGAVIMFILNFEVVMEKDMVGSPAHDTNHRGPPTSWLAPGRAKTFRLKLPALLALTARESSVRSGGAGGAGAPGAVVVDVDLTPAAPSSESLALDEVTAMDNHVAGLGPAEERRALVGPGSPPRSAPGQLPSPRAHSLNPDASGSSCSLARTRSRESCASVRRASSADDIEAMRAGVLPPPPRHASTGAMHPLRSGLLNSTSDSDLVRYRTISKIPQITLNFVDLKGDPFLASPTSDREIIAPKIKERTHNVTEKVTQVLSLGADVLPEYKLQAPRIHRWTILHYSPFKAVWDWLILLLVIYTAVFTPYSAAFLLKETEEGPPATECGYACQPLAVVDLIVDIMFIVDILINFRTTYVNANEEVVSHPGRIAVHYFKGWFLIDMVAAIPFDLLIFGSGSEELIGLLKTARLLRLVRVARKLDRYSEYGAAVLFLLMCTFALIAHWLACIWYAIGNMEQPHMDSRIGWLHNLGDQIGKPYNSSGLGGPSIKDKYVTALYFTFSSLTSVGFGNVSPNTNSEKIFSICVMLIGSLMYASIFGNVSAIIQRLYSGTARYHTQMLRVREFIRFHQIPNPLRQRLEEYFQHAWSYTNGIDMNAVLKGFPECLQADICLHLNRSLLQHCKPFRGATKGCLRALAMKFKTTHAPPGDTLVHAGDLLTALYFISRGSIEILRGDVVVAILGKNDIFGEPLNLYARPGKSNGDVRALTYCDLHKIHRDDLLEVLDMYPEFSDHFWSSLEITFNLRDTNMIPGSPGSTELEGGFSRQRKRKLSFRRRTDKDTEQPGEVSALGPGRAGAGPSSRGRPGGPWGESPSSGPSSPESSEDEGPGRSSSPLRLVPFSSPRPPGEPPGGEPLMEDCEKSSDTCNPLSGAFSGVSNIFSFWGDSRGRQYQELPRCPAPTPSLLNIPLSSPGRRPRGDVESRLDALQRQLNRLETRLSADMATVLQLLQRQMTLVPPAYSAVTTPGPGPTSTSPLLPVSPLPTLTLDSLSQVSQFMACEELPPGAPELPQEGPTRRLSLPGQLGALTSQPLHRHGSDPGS
# assay_name: Inhibition of human ERG at 1 uM relative to control
# Format: toxicity
measure_name: inhibition at 1 µM (%)
Write down the numeric answer in % and omit the unit.

I would be grateful if you could share the reported inhibition at 1 µM for CC(C)N(CCCNC(=O)Nc1ccc(C(C)(C)C)cc1)C[C@H]1O[C@@H](n2cc(Br)c3c(N)ncnc32)[C@H](O)[C@@H]1O .
-15

The reported measurements were obtained from ChEMBL document CHEMBL5653612.
